- target_of_assay: canine TRPM8 (Canis lupus familiaris, UniProt Q1A7N1)
- Construct: expressed in transfected cells
- Sequence (Q1A7N1 1-1104): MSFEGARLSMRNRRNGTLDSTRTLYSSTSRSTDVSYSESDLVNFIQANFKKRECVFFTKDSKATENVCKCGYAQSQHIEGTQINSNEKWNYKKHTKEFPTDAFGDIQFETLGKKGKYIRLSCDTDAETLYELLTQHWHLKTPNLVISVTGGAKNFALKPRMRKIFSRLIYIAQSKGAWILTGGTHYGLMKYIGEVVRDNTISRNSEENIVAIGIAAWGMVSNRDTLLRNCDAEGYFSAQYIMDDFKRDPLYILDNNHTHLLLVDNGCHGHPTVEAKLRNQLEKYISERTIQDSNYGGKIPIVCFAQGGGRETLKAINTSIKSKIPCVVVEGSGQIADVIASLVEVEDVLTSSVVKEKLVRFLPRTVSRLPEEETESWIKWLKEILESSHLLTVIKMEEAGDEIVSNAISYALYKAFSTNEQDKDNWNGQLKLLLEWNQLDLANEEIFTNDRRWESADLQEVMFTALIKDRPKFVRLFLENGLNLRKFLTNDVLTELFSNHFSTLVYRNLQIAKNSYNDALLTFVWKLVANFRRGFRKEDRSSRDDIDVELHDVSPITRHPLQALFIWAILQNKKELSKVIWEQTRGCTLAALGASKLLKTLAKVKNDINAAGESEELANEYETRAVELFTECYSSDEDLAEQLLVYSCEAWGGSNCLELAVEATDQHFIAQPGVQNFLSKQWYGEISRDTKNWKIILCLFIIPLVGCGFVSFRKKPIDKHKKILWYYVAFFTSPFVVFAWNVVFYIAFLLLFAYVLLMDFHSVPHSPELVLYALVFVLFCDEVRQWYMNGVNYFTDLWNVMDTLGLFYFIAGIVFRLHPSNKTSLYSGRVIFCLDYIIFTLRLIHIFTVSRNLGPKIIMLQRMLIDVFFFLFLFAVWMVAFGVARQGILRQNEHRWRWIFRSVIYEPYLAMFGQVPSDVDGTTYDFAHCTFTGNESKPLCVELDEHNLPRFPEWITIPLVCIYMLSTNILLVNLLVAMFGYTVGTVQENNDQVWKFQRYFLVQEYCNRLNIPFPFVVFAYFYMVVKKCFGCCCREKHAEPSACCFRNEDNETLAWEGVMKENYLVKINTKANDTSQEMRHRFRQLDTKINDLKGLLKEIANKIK
- test_protocol: In Vitro Canine TRPM8 Functional Assay (intracellular Ca2+ fluorescence, icilin activation, HEK293 cells)
- Assay type: cell-based
- condition_label: HEK293, 0.2 μM test compound; individually measured values; read-out: % Inh (%) @0.2 μM, in vitro TRP M8 Activity
Counter-ions that a name gives are not always drawn.
attribute_measured: inhibition at 0.2 µM (%)

compound="Cn1nc(C(C)(C)C)c(Cl)c1-c1nc2cc(-c3c(F)cccc3OC(F)(F)F)cc(C(F)(F)F)c2[nH]1 [Compound 126, hydrochloride]" target_of_assay="canine TRPM8 (Canis lupus familiaris, UniProt Q1A7N1)" units_of_measure=% measured_value=99
compound="Cc1oc(C(C)(C)C)nc1-c1nc2cc(-c3ccccc3F)cc(C(F)(F)F)c2[nH]1 [Compound 154, hydrochloride]" target_of_assay="canine TRPM8 (Canis lupus familiaris, UniProt Q1A7N1)" units_of_measure=% measured_value=57
compound="Cc1oc(C(C)(C)C)nc1-c1nc2cc(-c3ccccc3Cl)cc(C(F)(F)F)c2[nH]1 [Compound 155, hydrochloride]" target_of_assay="canine TRPM8 (Canis lupus familiaris, UniProt Q1A7N1)" units_of_measure=% measured_value=59
compound="Cn1nc(C(C)(C)C)c(C#N)c1-c1nc2cc(-c3c(F)cccc3F)cc(Cl)c2[nH]1 [Compound 171, sodium salt]" target_of_assay="canine TRPM8 (Canis lupus familiaris, UniProt Q1A7N1)" units_of_measure=% measured_value=100
compound="Cn1nc(C(C)(C)C)c(C#N)c1-c1nc2cc(-c3ccccc3F)cc(C(F)(F)F)c2[n-]1.[Na+] [Compound 147, sodium salt]" target_of_assay="canine TRPM8 (Canis lupus familiaris, UniProt Q1A7N1)" units_of_measure=% measured_value=100
compound="Cc1nc(C(C)(C)C)oc1-c1nc2cc(-c3ccccc3)cc(Cl)c2[nH]1 [Compound 180, hydrochloride]" target_of_assay="canine TRPM8 (Canis lupus familiaris, UniProt Q1A7N1)" units_of_measure=% measured_value=6
compound="Cc1c(C(C)(C)C)nn(C)c1-c1nc2cc(-c3c(F)cccc3F)cc(Cl)c2[nH]1 [Compound 136, hydrochloride]" target_of_assay="canine TRPM8 (Canis lupus familiaris, UniProt Q1A7N1)" units_of_measure=% measured_value=100
compound="Cn1nc(C(C)(C)C)c(C#N)c1-c1nc2cc(-c3c(F)cccc3OC(F)(F)F)cc(Cl)c2[nH]1 [Compound 173, sodium salt]" target_of_assay="canine TRPM8 (Canis lupus familiaris, UniProt Q1A7N1)" units_of_measure=% measured_value=100
compound="Cl.Cn1nc(C(C)(C)C)c(Cl)c1-c1nc2cc(-c3ccccc3OC(F)(F)F)cc(Cl)c2[nH]1 [Compound 117, hydrochloride]" target_of_assay="canine TRPM8 (Canis lupus familiaris, UniProt Q1A7N1)" units_of_measure=% measured_value=100
compound="Cn1nc(C(C)(C)C)c(C#N)c1-c1nc2cc(-c3ccccc3OC(F)(F)F)cc(Cl)c2[nH]1 [Compound 170, sodium salt]" target_of_assay="canine TRPM8 (Canis lupus familiaris, UniProt Q1A7N1)" units_of_measure=% measured_value=100

a: Cn1nc(C(C)(C)C)c(C#N)c1-c1nc2cc(-c3c(F)cccc3C(F)(F)F)cc(Cl)c2[nH]1 [Compound 172, sodium salt]
b: FC(F)(F)Oc1ccccc1-c1ccc2nc(-c3cc(C4CCCCC4)no3)[nH]c2c1 [Compound 25, hydrochloride]
API: POST /compare with a and b ; response names the item with higher inhibition at 0.2 µM. # answer = label of selected item
a
